FYI, the data here is from the supplement of paper PMC8728848.

- STUDY_SYSTEM: Fuc(a1-2)Gal6S(b1-4)Glc6S
- TEST_NAME: glycan array binding signal (z-score within array); higher = stronger binding
- MEASUREMENT_PARAMETERS: glycan notation: IUPAC condensed, linker removed
The full list was thinned out, with the strongest signals kept by preference.
Give glycan array binding signal (z-score) for every item shown.
Respond numerically, and do not add a unit to the figure.

Task: Would you mind telling me what glycan array binding signal (z-score) value was observed for TAL6-4LysM (Trichoderma atroviride) (protein) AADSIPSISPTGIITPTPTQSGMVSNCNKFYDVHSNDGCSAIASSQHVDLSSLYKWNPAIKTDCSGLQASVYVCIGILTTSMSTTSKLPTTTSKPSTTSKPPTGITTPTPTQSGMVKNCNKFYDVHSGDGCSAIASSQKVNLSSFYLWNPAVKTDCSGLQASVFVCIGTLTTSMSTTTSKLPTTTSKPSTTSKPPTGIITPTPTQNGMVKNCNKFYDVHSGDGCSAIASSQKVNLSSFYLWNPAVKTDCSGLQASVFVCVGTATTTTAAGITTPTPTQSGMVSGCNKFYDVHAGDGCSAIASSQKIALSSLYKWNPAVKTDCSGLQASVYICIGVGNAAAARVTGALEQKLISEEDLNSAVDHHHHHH ?
Output: -0.234

Task: I would be grateful if you could share the reported glycan array binding signal (z-score) for Threefoil (Haloarcula marismortui) (protein) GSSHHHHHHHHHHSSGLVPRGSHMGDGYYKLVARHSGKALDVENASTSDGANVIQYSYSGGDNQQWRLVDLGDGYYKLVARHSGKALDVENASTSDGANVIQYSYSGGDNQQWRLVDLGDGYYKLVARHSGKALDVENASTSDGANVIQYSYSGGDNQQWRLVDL .
Output: -0.153

Task: Quick one: glycan array binding signal (z-score) for Protectin (Homo sapiens), P13987 (protein) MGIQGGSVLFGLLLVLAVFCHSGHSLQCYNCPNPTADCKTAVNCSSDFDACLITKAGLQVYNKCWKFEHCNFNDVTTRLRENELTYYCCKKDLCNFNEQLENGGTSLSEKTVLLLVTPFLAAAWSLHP ?
Output: -0.108
